B1: TMEM192 (parent)
chain: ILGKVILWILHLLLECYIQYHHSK

Variants of: B1
experimentalDetails: protein stability index of a GFP-peptide fusion (GPS, HEK-293T) (PSI 1-6); higher = more stable;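 also: lentivirally expressed fusions sorted by FACS into six bins by GFP to DsRed ratio, PSI derived from sequencing read proportions per bin multiplied by bin number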
conditionDescription: c terminus: a fixed tail appended
// label = 1 if protein stability index is not less than 3, otherwise -1

variantCode	label
H22T	-1
I9F	1
I9M	-1
C16T	1
I6V	1
E15T	-1
I18G	-1
Y17R	-1
L14E	1
Y17Q	-1
I18N	-1
I1P	-1
Y17N	1
G3Q	1
Q19L	1
L14Y	1
L7D	-1
G3W	-1
S23L	1
L14D	1
L2A	-1
G3P	1
K24G	1
K24H	-1
K4P	-1
E15F	-1
V5R	-1
Y20H	-1
L2H	-1
K4G	1
Q19Y	1
L2F	-1
I1G	1
C16N	1
H22W	1
H21N	-1
L12Y	-1
I9K	1
L13T	-1
W8V	1
I1M	1
H22C	-1
